assay: NCI Yeast Anticancer Drug Screen. Data for the sgs1 mgt1 strain (AID 161); details: S. cerevisiae sgs1 mgt1 strain, at 5.0 µM (retest, dose inferred, filed as 0.5)
About 79,000 compounds went through this panel and 15% of them were active in at least one assay; those are over-represented in the sample as a whole. The source made the active and inactive calls. No stated cut-off is given here; in the data, active means growth inhibition above about 70%; inactive means the rest.
Classes used: active, inactive

>  <compound>
CCCNC(=O)C(=O)NNc1ccccc1

>  <class.label>
inactive

$$$$
>  <compound>
O/N=C1/CC2CCCc3ccc4cccc1c4c32 (stereo unspecified)

>  <class.label>
inactive

$$$$
>  <compound>
O=C1c2ccccc2C(=O)c2cc(N3C(=O)C=CC3=O)ccc21

>  <class.label>
active

$$$$
>  <compound>
CCCCCNc1ccc2c(cc1=O)C(NC(C)=O)CCc1cc(OC)c(OC)c(OC)c1-2 (stereo unspecified)

>  <class.label>
inactive

$$$$
>  <compound>
CS/C(C#N)=C(\C#N)SC

>  <class.label>
inactive

$$$$
>  <compound>
CCCCCCc1ccc(O)c(Cl)c1

>  <class.label>
inactive

$$$$
>  <compound>
CC(C)c1ccc(O)c(O)c(=O)c1 (tested in a mixture with another compound)

>  <class.label>
active

$$$$
>  <compound>
O=C(C[N+]1(CCc2ccccc2)CCOCC1)c1ccc(-c2ccccc2)cc1

>  <class.label>
inactive

$$$$
>  <compound>
OC1CCC(COC(c2ccccc2)(c2ccccc2)c2ccccc2)O1 (stereo unspecified)

>  <class.label>
inactive

$$$$
>  <compound>
O=C(Nc1cc(Cl)cc(Cl)c1)C(F)(F)F

>  <class.label>
inactive

$$$$
>  <compound>
CCN(CC)CCOc1c(Cl)c(Cl)c(Cl)c(Cl)c1Cl

>  <class.label>
inactive

$$$$

// data source = PubChem BioAssay (NCI)
